biological target: Thyroid hormone receptor (Homo sapiens, UniProt P10827+P10828); experiment: Binding affinity for human Thyroid hormone receptor
test_readout: Ki (nM)

>  <chemical_string>
CC(C)c1cc(Oc2c(Br)cc(C(=O)O)cc2Br)cc(C(C)C)c1O

>  <test_readout>
Ki

>  <value_observed>
1380

$$$$

* * *

target: Thyroid hormone receptor beta (Homo sapiens); experiment: Inhibitory activity against human TRAFbeta
Sequence (P10828 whole entry): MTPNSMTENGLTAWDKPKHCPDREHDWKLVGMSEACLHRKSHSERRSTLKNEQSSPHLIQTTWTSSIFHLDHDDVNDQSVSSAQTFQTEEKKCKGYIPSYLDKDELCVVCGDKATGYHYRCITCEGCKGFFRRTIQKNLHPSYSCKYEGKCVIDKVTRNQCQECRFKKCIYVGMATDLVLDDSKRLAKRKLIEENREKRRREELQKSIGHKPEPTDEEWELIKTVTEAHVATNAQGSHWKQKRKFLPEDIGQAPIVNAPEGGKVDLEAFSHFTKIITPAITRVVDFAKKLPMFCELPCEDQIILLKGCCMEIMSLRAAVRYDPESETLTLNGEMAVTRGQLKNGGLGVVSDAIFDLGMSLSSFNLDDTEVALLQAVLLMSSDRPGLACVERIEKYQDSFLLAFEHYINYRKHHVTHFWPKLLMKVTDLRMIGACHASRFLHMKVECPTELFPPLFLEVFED
pIC50: −log10 of the molar value.
Outcome: true (1) for pIC50 of at least 6; false (0) for anything lower.

>  <chemical_string>
Cc1oc2ccccc2c1Cc1cc(I)c(OCC(=O)O)c(I)c1

>  <label>
false (0)

$$$$
>  <chemical_string>
O=C(O)Cc1cc(Br)c(OCC2CCCCC2)c(Br)c1

>  <label>
true (1)

$$$$
>  <chemical_string>
O=C(O)CCc1cc(Br)c(OCC2CCCCC2)c(Br)c1

>  <label>
true (1)

$$$$
>  <chemical_string>
CCCCc1oc2ccccc2c1C(=O)c1cc(I)c(CCN(CC)CC)c(I)c1

>  <label>
false (0)

$$$$
>  <chemical_string>
CC(C)c1cc(Oc2c(Br)cc(C(=O)O)cc2Br)cc(C(C)C)c1O

>  <label>
false (0)

$$$$

* * *

molecular target: UniProtKB P10827; test: Inhibitory activity against human TRAFalpha
We begin with a simple list: items and their reported IC50.
test_readout: IC50 (nM)

>  <chemical_string>
CCC(CC)COc1c(Br)cc(CC(=O)O)cc1Br

>  <system_under_test>
UniProtKB P10827

>  <bound_sign>
=

>  <value_observed>
820

$$$$
>  <chemical_string>
CCCCCCOc1c(Br)cc(CC(=O)O)cc1Br

>  <system_under_test>
UniProtKB P10827

>  <bound_sign>
=

>  <value_observed>
700

$$$$
>  <chemical_string>
Cc1oc2ccccc2c1Cc1cc(I)c(OCC(=O)O)c(I)c1

>  <system_under_test>
UniProtKB P10827

>  <bound_sign>
=

>  <value_observed>
2200

$$$$
>  <chemical_string>
O=C(O)CCc1cc(Br)c(OCC2CCCCC2)c(Br)c1

>  <system_under_test>
UniProtKB P10827

>  <bound_sign>
=

>  <value_observed>
530

$$$$
>  <chemical_string>
O=C(O)Cc1cc(Br)c(OCC2CCCCC2)c(Br)c1

>  <system_under_test>
UniProtKB P10827

>  <bound_sign>
=

>  <value_observed>
420

$$$$
>  <chemical_string>
CCCCCCOc1c(Br)cc(CCC(=O)O)cc1Br

>  <system_under_test>
UniProtKB P10827

>  <bound_sign>
=

>  <value_observed>
600

$$$$
>  <chemical_string>
CCCCc1oc2ccccc2c1C(=O)c1cc(I)c(CCN(CC)CC)c(I)c1

>  <system_under_test>
UniProtKB P10827

>  <bound_sign>
>

>  <value_observed>
10000

$$$$
>  <chemical_string>
CC(C)c1cc(Oc2c(Br)cc(C(=O)O)cc2Br)cc(C(C)C)c1O

>  <system_under_test>
UniProtKB P10827

>  <bound_sign>
=

>  <value_observed>
1100

$$$$

* * *

biological target: Thyroid hormone receptor alpha (Homo sapiens); experiment: Inhibitory activity against human Thyroid hormone receptor alpha
Sequence (P10827 whole entry): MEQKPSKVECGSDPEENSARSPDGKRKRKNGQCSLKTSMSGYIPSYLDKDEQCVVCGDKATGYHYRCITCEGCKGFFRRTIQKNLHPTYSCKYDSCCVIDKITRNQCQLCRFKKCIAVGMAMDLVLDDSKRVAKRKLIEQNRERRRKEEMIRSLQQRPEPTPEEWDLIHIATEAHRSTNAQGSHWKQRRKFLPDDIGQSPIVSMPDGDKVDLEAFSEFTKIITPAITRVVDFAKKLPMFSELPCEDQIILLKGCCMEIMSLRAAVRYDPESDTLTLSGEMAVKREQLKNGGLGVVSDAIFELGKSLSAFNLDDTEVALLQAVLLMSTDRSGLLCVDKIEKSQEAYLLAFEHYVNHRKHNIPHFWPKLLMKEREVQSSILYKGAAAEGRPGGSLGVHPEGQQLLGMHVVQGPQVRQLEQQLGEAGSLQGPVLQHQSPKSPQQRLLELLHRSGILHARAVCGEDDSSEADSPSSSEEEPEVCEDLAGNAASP
pIC50: −log10 of the molar value.
Outcome: Criterion met for pIC50 of at least 5; Criterion not met for anything lower.

>  <chemical_string>
CCCCCOc1c(Br)cc(CC(=O)O)cc1Br

>  <label>
Criterion not met

$$$$
>  <chemical_string>
CCCCCCOc1c(Br)cc(CC(=O)O)cc1Br

>  <label>
Criterion met

$$$$
>  <chemical_string>
CCCCOc1c(Br)cc(CC(=O)O)cc1Br

>  <label>
Criterion not met

$$$$
>  <chemical_string>
O=C(O)CCc1cc(Br)c(OCC2CCCCC2)c(Br)c1

>  <label>
Criterion met

$$$$
>  <chemical_string>
CCCCCCOc1c(Br)cc(CCC(=O)O)cc1Br

>  <label>
Criterion met

$$$$
>  <chemical_string>
O=C(O)Cc1cc(Br)c(OCC2CCCCC2)c(Br)c1

>  <label>
Criterion met

$$$$
>  <chemical_string>
CCC(CC)COc1c(Br)cc(CC(=O)O)cc1Br

>  <label>
Criterion met

$$$$
>  <chemical_string>
CC(C)CCOc1c(Br)cc(CCC(=O)O)cc1Br

>  <label>
Criterion met

$$$$
>  <chemical_string>
CCC(CC)COc1c(Br)cc(CCC(=O)O)cc1Br

>  <label>
Criterion met

$$$$
>  <chemical_string>
CCCCc1oc2ccccc2c1C(=O)c1cc(I)c(CCN(CC)CC)c(I)c1

>  <label>
Criterion met

$$$$
>  <chemical_string>
CCOc1c(Br)cc(CC(=O)O)cc1Br

>  <label>
Criterion not met

$$$$
